# assayed.target: T1, PTP4A3 (PRL-3)
# T1 construct: coated protein in the ELISA; also called His-PTP4A3 (R&D Systems)
# T1 sequence (chain, as listed by the source limits assumed): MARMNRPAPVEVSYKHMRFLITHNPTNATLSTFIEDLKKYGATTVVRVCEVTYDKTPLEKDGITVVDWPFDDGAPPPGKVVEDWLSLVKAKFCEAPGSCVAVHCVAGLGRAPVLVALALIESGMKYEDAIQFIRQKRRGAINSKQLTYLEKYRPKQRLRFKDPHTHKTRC
# assay.details: ELISA on coated His-PTP4A3, 150 ng IgG1; None 0.085
# Protocol: Recombinant purified ECDs (50-150 ng) of each putative target protein were coated, incubated with 150 ng of the indicated primary antibody, and binding was detected using a peroxidase-conjugated anti-human Fab secondary antibody. Heatmap represents averages of technical triplicates. […] ELISA ELISA was conducted as described previously. […] After incubating at 37° C. for 15 min-1 h (depending on intensity of controls), data were acquired using a SpectraMax M5 plate reader (Molecular Devices).
ELISA Absorbance (405 nm-570 nm) values, listed per item
Write the number on its own, no unit after it.

// known answers, use as guide
HW-113 chimeric rabbit-human IgG1 LA/LA/PG (antibody, V domains shown, Fc-silenced (L234A/L235A/P329G) IgG1, lambda; Alexa Fluor 647-labeled in single-step flow cytometry) VH: QKQLVESGGGLVQPGGSLTLTCTVSGFSLNKYYMGWFRQAPGKGLEWIGVISRSGDTYYSSWAKGRFTISKASTTVDLRITSPTTEDTATYFCARDASSPGFHGDRLDLWGQGTLVTVSS VL: SFVLTQPASVQVNLGQTVSLTCTADTLSRSYASWYQQKPGQAPVLLIYRDTSRPSGVPDRFSGSSSGNTATLTISGAQAGDEADYYCATSDGIGSNYLWVFGGGTQLTVTG	0.078
HW-70 chimeric rabbit-human IgG1 LA/LA/PG (antibody, V domains shown, Fc-silenced (L234A/L235A/P329G) IgG1, lambda; Alexa Fluor 647-labeled in single-step flow cytometry; Cluster C-1) VH: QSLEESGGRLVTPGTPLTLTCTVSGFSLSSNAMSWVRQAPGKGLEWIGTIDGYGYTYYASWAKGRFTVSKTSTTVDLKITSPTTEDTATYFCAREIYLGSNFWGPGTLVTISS VL: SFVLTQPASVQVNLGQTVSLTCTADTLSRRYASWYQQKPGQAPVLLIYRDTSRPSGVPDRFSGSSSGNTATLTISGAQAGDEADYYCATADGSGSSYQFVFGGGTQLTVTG	0.092

Could you now look at the following binder, please?
Fill in the blank: the reported ELISA Absorbance (405 nm-570 nm) of HW-81 chimeric rabbit-human IgG1 LA/LA/PG (antibody, V domains shown, Fc-silenced (L234A/L235A/P329G) IgG1, lambda; Alexa Fluor 647-labeled in single-step flow cytometry; Cluster C-45) VH: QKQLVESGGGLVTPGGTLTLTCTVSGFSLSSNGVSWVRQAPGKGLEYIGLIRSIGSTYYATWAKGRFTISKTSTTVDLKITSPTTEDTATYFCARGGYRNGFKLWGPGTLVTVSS VL: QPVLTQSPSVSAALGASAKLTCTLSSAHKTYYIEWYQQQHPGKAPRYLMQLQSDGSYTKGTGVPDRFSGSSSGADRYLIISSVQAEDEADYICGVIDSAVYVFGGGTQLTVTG is ____.
0.08
